// provenance: paper doi:10.1101/2021.05.25.445566

Molecular target: T1, MlaE, His-tagged (His-E), permease of the MlaFEDB ABC transporter (UniProt P64606 1-260)
T1 sequence: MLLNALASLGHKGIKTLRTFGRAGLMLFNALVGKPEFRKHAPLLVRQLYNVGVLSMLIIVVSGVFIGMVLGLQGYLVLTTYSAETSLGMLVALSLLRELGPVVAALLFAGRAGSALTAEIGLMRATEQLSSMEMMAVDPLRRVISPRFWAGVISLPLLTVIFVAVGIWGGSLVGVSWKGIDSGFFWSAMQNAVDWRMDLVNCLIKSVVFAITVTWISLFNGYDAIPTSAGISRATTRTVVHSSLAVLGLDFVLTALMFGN
Assay: SEC
readout: binding result

binder	observed.result
MlaD L106N/L107N (natural protein) MQTKKNEIWVGIFLLAALLAALFVCLKAANVTSIRTEPTYTLYATFDNIGGLKARSPVSIGGVVVGRVADITLDPKTYLPRVTLEIEQRYNHIPDTSSLSIRTSGNNGEQYLALNVGFEDPELGTAILKDGDTIQDTKSAMVLEDLIGQFLYGSKGDDNKNSGDAPAAAPGNNETTEPVGTTK	binds
MlaB, cytoplasmic STAS-domain protein of the MlaFEDB complex (natural protein) MSESLSWMQTGDTLALSGELDQDVLLPLWEMREEAVKGITCIDLSRVSRVDTGGLALLLHLIDLAKKQGNNVTLQGVNDKVYTLAKLYNLPADVLPR	binds
MlaB T52A (natural protein) MSESLSWMQTGDTLALSGELDQDVLLPLWEMREEAVKGITCIDLSRVSRVDAGGLALLLHLIDLAKKQGNNVTLQGVNDKVYTLAKLYNLPADVLPR	binds
